assay: Toxicokinetics in plasma, rat 90-day study; format: in vivo; conditions: female, rat, plasma, po, 300 ppm in diet
quantity kind: AUC(0-t) (ng·h/mL)
Dear colleague, please return just the value in ng·h/mL, with no unit written.

Name the reported AUC(0-t) value associated with the compound Cn1c(C(F)(F)F)cc(=O)n(-c2cc(Oc3cccnc3OCC(=O)O)c(Cl)cc2F)c1=O [S-3100-CA]
5020

====

Target: protoporphyrinogen oxidase (PPO) (Mus musculus, UniProt P51175)
Sequence (P51175 1-477): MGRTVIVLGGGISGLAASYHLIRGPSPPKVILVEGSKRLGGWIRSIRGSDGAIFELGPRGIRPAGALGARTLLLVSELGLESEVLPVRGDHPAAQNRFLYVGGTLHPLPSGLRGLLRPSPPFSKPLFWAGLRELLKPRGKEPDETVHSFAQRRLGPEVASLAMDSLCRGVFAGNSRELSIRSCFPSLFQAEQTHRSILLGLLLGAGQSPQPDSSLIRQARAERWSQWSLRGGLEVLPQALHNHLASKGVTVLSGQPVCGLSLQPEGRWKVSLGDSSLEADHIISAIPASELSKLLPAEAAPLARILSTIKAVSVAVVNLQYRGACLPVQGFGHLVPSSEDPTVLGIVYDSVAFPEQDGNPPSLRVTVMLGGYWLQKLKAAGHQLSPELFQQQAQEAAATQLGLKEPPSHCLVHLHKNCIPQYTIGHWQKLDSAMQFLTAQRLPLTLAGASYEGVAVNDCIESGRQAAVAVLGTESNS
Recorded IC50, one value per entry.
Dear colleague, please return just the value in nM, with no unit written.

CCOC(=O)COc1ncccc1Oc1cc(-n2c(=O)cc(C(F)(F)F)n(C)c2=O)c(F)cc1Cl; 2.2

Continue with the next compound.
Name the reported IC50 value associated with the compound Cn1c(C(F)(F)F)cc(=O)n(-c2cc(Oc3cccnc3OCC(=O)O)c(Cl)cc2F)c1=O
0.9

====

assay: Toxicokinetics in plasma, rat 90-day study; type: in vivo; details: female, rat, plasma, po, 300 ppm in diet
quantity kind: Cmax (ng/mL)
Dear colleague, please return just the value in ng/mL, with no unit written.

Name the reported Cmax value associated with the compound Cn1c(C(F)(F)F)cc(=O)n(-c2cc(Oc3cccnc3OCC(=O)O)c(Cl)cc2F)c1=O
266

====

assay: Toxicokinetics in plasma, mouse 90-day study; format: in vivo; settings: female, mouse, plasma, po, 100 ppm in diet
quantity kind: Cmax

Name the reported Cmax value associated with the molecule Cn1c(C(F)(F)F)cc(=O)n(-c2cc(Oc3cccnc3OCC(=O)O)c(Cl)cc2F)c1=O [S-3100-CA]
860 ng/mL

====

test: Toxicokinetics in plasma, mouse 90-day study; assay type: in vivo; conditions: female, mouse, plasma, po, 25 ppm in diet
quantity kind: Cmax (ng/mL)
Dear colleague, please return just the value in ng/mL, with no unit written.

Name the reported Cmax value associated with the molecule Cn1c(C(F)(F)F)cc(=O)n(-c2cc(Oc3cccnc3OCC(=O)O)c(Cl)cc2F)c1=O
135

====

experiment: 90-day subchronic toxicity study with epyrifenacil in rats; type: in vivo, rat; details: male, Crl:CD(SD), rat, in vivo, oral
quantity kind: NOAEL at 90 days (mg/kg/day)
Dear colleague, please return just the value in mg/kg/day, with no unit written.

Name the reported NOAEL at 90 days value associated with the compound CCOC(=O)COc1ncccc1Oc1cc(-n2c(=O)cc(C(F)(F)F)n(C)c2=O)c(F)cc1Cl [epyrifenacil]
3

====

assay: Toxicokinetics in plasma, mouse 90-day study; type: in vivo; details: male, Crl:CD1(ICR), mouse, plasma, po, 0.7 mg/kg bw/day
quantity kind: Cmax (ng/mL)
Dear colleague, please return just the value in ng/mL, with no unit written.

Name the reported Cmax value associated with the molecule Cn1c(C(F)(F)F)cc(=O)n(-c2cc(Oc3cccnc3OCC(=O)O)c(Cl)cc2F)c1=O [S-3100-CA]
12.8

====

experiment: Toxicokinetics in plasma, rat 90-day study; assay type: in vivo; settings: male, rat, plasma, po, 300 ppm in diet
quantity kind: AUC(0-t) (ng·h/mL)
Dear colleague, please return just the value in ng·h/mL, with no unit written.

Name the reported AUC(0-t) value associated with the molecule Cn1c(C(F)(F)F)cc(=O)n(-c2cc(Oc3cccnc3OCC(=O)O)c(Cl)cc2F)c1=O [S-3100-CA]
4010

====

test: Toxicokinetics in plasma, mouse 90-day study; format: in vivo; conditions: female, mouse, plasma, po, 5 ppm in diet
quantity kind: AUC(0-t) (ng·h/mL)
Dear colleague, please return just the value in ng·h/mL, with no unit written.

Name the reported AUC(0-t) value associated with the molecule Cn1c(C(F)(F)F)cc(=O)n(-c2cc(Oc3cccnc3OCC(=O)O)c(Cl)cc2F)c1=O [S-3100-CA]
403

====

Protein target, amino acids: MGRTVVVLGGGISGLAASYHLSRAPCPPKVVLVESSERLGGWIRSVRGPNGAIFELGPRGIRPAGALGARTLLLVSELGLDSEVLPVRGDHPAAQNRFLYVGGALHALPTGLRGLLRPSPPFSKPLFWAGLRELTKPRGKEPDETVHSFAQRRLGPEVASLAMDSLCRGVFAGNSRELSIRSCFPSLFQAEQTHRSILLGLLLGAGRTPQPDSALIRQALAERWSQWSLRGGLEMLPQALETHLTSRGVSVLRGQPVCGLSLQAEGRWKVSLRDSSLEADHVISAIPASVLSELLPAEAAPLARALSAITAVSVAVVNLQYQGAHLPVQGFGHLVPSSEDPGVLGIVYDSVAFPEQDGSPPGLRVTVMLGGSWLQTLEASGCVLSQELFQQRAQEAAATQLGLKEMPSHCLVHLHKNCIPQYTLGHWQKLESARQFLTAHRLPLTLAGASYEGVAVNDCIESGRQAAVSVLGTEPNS
Recorded pIC50, one value per entry.
Worth noting: pIC50 values are minus log10 of concentrations stated in mol/L.

Cn1c(C(F)(F)F)cc(=O)n(-c2cc(Oc3cccnc3OCC(=O)O)c(Cl)cc2F)c1=O [S-3100-CA]; 7.90

Continue with the next compound.
Name the reported pIC50 value associated with the compound CCOC(=O)COc1ncccc1Oc1cc(-n2c(=O)cc(C(F)(F)F)n(C)c2=O)c(F)cc1Cl [epyrifenacil]
7.99

====

assay: Toxicokinetics in plasma, rat 90-day study; format: in vivo; conditions: male, Crl:CD(SD), rat, plasma, po, 50 ppm
quantity kind: Cmax (ng/mL)
Dear colleague, please return just the value in ng/mL, with no unit written.

Name the reported Cmax value associated with the compound Cn1c(C(F)(F)F)cc(=O)n(-c2cc(Oc3cccnc3OCC(=O)O)c(Cl)cc2F)c1=O
20.7

====

experiment: 90-day subchronic toxicity study with epyrifenacil in mice; assay type: in vivo; conditions: male, Crl:CD1(ICR), mouse, in vivo, oral
quantity kind: NOAEL at 90 days (mg/kg/day)
Dear colleague, please return just the value in mg/kg/day, with no unit written.

Name the reported NOAEL at 90 days value associated with the compound CCOC(=O)COc1ncccc1Oc1cc(-n2c(=O)cc(C(F)(F)F)n(C)c2=O)c(F)cc1Cl [epyrifenacil]
0.7

====

Entries with their measured IC50, system protoporphyrinogen oxidase (PPO) (Canis lupus familiaris, UniProt A0A8I3Q7Z3):
Dear colleague, please return just the value in nM, with no unit written.

CCOC(=O)COc1ncccc1Oc1cc(-n2c(=O)cc(C(F)(F)F)n(C)c2=O)c(F)cc1Cl [epyrifenacil]; 7.6

Name the reported IC50 value associated with the compound Cn1c(C(F)(F)F)cc(=O)n(-c2cc(Oc3cccnc3OCC(=O)O)c(Cl)cc2F)c1=O [S-3100-CA]
11.1

====

assay: Toxicokinetics in plasma, rat 90-day study; assay type: in vivo; conditions: female, rat, plasma, po, 800 ppm in diet
quantity kind: AUC(0-t) (ng·h/mL)
Dear colleague, please return just the value in ng·h/mL, with no unit written.

Name the reported AUC(0-t) value associated with the compound Cn1c(C(F)(F)F)cc(=O)n(-c2cc(Oc3cccnc3OCC(=O)O)c(Cl)cc2F)c1=O [S-3100-CA]
13200

====

assay: Toxicokinetics in plasma, dog 90-day study; assay type: in vivo; conditions: female, beagle, dog, plasma, po, 300 mg/kg bw/day
quantity kind: Cmax (ng/mL)
Dear colleague, please return just the value in ng/mL, with no unit written.

Name the reported Cmax value associated with the molecule Cn1c(C(F)(F)F)cc(=O)n(-c2cc(Oc3cccnc3OCC(=O)O)c(Cl)cc2F)c1=O [S-3100-CA]
5650

====

test: Toxicokinetics in plasma, dog 90-day study; type: in vivo; settings: female, beagle, dog, plasma, po, 300 mg/kg/day
quantity kind: Cmax (ng/mL)
Dear colleague, please return just the value in ng/mL, with no unit written.

Name the reported Cmax value associated with the compound Cn1c(C(F)(F)F)cc(=O)n(-c2cc(Oc3cccnc3OCC(=O)O)c(Cl)cc2F)c1=O
5650

====

assay: Toxicokinetics in plasma, rat 90-day study; type: in vivo; conditions: female, rat, plasma, po, 50 ppm in diet
quantity kind: Cmax (ng/mL)
Dear colleague, please return just the value in ng/mL, with no unit written.

Name the reported Cmax value associated with the molecule Cn1c(C(F)(F)F)cc(=O)n(-c2cc(Oc3cccnc3OCC(=O)O)c(Cl)cc2F)c1=O
46.5
